- target.or.system: human 11β-HSD1 microsome fraction (Homo sapiens, UniProt P28845)
- Sequence (P28845 whole entry): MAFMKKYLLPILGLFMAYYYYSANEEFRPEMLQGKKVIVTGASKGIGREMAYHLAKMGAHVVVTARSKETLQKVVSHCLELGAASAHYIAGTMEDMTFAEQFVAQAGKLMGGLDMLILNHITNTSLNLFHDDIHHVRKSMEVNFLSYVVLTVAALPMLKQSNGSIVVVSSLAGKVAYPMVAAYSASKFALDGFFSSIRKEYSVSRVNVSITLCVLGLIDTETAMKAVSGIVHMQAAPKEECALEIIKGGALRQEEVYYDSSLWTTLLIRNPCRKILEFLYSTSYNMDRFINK
- assay.name: Enzymatic 11beta-HSD1 test (SPA-based detection)
- Assay type: biochemical
- measurement.context: [1,2-3H]-cortisone, NADPH, 37° C., 1 hour, read-out: IC50 (nM), biological activity
- Procedure: First of all, 20 μl of the human 11β-HSD1 microsome fraction (0.2 μg of protein), prepared in 50 mM HEPES, 0.1% BSA (w/v), were applied to a plate with 384 wells. The test compounds (0.09 μl) were applied to the assay plate in 100% DMSO. The reaction was started by addition of 20 μl of [1,2-^3H]-cortisone (0.1 μCi/[…]) in assay buffer comprising 25 mM HEPES, 100 mM KCl, 5 mM NaCl, 2 mM MgCl2 and 0.25 mM NADPH. The plate was agitated at 37° C. for 1 hour. […]
Note to self: IC50 under 500 nM means criterion met, ties and anything higher get criterion not met.

compound	label
CC(C)(C)C1OC(NC2CCCCC2)=NS(=O)(=O)C12CC2 (centres unmarked)	criterion met

Is IC50 of CC(C)C1OC(NC2CCCCC2)=NS(=O)(=O)C12CC2 (centres unmarked) strictly below 500 nM?
criterion not met

Is IC50 of O=S1(=O)N=C(NC2CCCCC2)OC(c2ccccc2)C12CC2 (centres unmarked) strictly below 500 nM?
criterion met

Is IC50 of CC1OC(NC2CCCCC2)=NS(=O)(=O)C12CC2 (centres unmarked) strictly below 500 nM?
criterion not met

Is IC50 of CCCC1OC(NC2CCCCC2)=NS(=O)(=O)C12CC2 (centres unmarked) strictly below 500 nM?
criterion not met
